Source: patent US20250034200A1

# Assay Notes: Plasma stability assay (LC-MS/MS)
# Type: in vitro ADME
# Test Conditions: human plasma, 37° C., 3 μM; read-out: Plasma t1/2 (converted)
Known half-life of a selection of molecules

Molecule	half-life
CNC[C@@H]1CCCN1C(=O)O/N=C(\C)[C@H]1CCC2[C@@H]3CCC4=CC(=O)CC[C@]4(C)[C@H]3CC[C@@]21C.Cl (stereo partly drawn) [32k]	> 240 min
CNCC(C)(C)CN(C)C(=O)O/N=C(\C)[C@H]1CCC2[C@@H]3CCC4=CC(=O)CC[C@]4(C)[C@H]3CC[C@@]21C.Cl (stereo partly drawn)	> 240 min

Consider the record given below.
Lab note: measured half-life of C/C(=N\OC(=O)N(C)C[C@@H]1CCCN1)[C@H]1CCC2[C@@H]3CCC4=CC(=O)CC[C@]4(C)[C@H]3CC[C@@]21C.Cl (stereo partly drawn) [32j] was < 6 min
